This collection of values is drawn from patent US10457707B2.

- Test system: Staphylococcus aureus, USA 300
*1 amine or outer side, *2 acyl side, *3 side chain or, on linkers, in order; H or OH if unused. Where a SMILES comes first, the peptide text is derived from it. Bridges are numbered along the chain shown (N, C = ends). [ ]: non-standard residue; d: D form. The star is where a group is joined. ξ: configuration not given here. NH(1,3-benzodioxol-5-yl) = c1cc2c(cc1N*)OCO2; Phe(3,5-F2) = N[C@@H](Cc1cc(F)cc(F)c1)C(=O)O; NH(4-OCF3-phenyl) = FC(F)(F)Oc1ccc(N*)cc1; Morpholine(3S-CO) = O=C(O)[C@@H]1COCCN1; Pro(4R-Me) = C[C@H]1CN[C@H](C(=O)O)C1; X10 = O=C(C1C[C@H](F)CN1[*:1])[*:2]; ξPro(4R-OH) = O=C(O)C1C[C@@H](O)CN1; ξPro(4R-Me) = C[C@H]1CNC(C(=O)O)C1; Hyp = O=C(O)[C@@H]1C[C@@H](O)CN1; NH(4-Me-phenyl) = Cc1ccc(N*)cc1; aThr = C[C@H](O)[C@H](N)C(=O)O; NMeA = CN[C@@H](C)C(=O)O; ξPip = O=C(O)C1CCCCN1; CO = O=C([*:1])[*:2]; ξP = O=C(O)C1CCCN1
Could you mark each record fulfilled if its MIC falls strictly under 0.1 µM, and not fulfilled if it equals or exceeds it?

# strict comparison: is reported MIC < 0.1 µM? input = C[C@@H]1C[C@H]2C(=O)OC[C@H](NC(=O)[C@H](Cc3cc(F)cc(F)c3)NC(=O)Nc3ccc4c(c3)OCO4)C(=O)N3C[C@H](O)C[C@H]3C(=O)N3CCOC[C@H]3C(=O)N[C@@H](C)C(=O)N2C1 [Compound 318] ({NH(1,3-benzodioxol-5-yl)-CO}-[Phe(3,5-F2)]S[Hyp][Morpholine(3S-CO)]A[Pro(4R-Me)]; ester 2-C)
not fulfilled

# strict comparison: is reported MIC < 0.1 µM? input = C[C@@H]1CC2C(=O)O[C@@H](C)[C@H](NC(=O)[C@H](Cc3cc(F)cc(F)c3)NC(=O)Nc3ccc(OC(F)(F)F)cc3)C(=O)N3CCCC3C(=O)N3CCCCC3C(=O)N[C@@H](C)C(=O)N2C1 (stereo partly drawn) [Compound 40] ({NH(4-OCF3-phenyl)-CO}-[Phe(3,5-F2)][aThr][ξP][ξPip]A[ξPro(4R-Me)]; ester 2-C)
fulfilled

# strict comparison: is reported MIC < 0.1 µM? input = Cc1ccc(NC(=O)N[C@@H](Cc2cc(F)cc(F)c2)C(=O)N[C@@H]2C(=O)N3C[C@H](O)CC3C(=O)N(C)[C@@H](C)C(=O)N[C@@H](C)C(=O)N3C[C@H](C)CC3C(=O)O[C@H]2C)cc1 (stereo partly drawn) [Compound 31] ({NH(4-Me-phenyl)-CO}-[Phe(3,5-F2)][aThr][ξPro(4R-OH)][NMeA]A[ξPro(4R-Me)]; ester 2-C)
not fulfilled

# strict comparison: is reported MIC < 0.1 µM? input = Cc1ccc(NC(=O)N[C@@H](Cc2cc(F)cc(F)c2)C(=O)N[C@H]2COC(=O)C3C[C@H](F)CN3C(=O)[C@H](C)NC(=O)C3CCCCN3C(=O)C3CCCN3C2=O)cc1 (stereo partly shown) [Compound 50] ({NH(4-Me-phenyl)-CO}-[Phe(3,5-F2)]S[ξP][ξPip]A[X10]; ester 2-C)
not fulfilled

# strict comparison: is reported MIC < 0.1 µM? input = Cc1ccc(NC(=O)N[C@@H](Cc2cc(F)cc(F)c2)C(=O)N[C@@H]2C(=O)N3CCC[C@H]3C(=O)N3CCOC[C@H]3C(=O)N[C@@H](C)C(=O)N3C[C@H](C)C[C@H]3C(=O)O[C@H]2C)cc1 [Compound 210] ({NH(4-Me-phenyl)-CO}-[Phe(3,5-F2)][aThr]P[Morpholine(3S-CO)]A[Pro(4R-Me)]; ester 2-C)
fulfilled
